Target of assay: Regulator of G-protein signaling 7 (Homo sapiens)
Assay protocol: RGS7-Galphao binding modulators, dose response, biochemical, multiplexed bead flow cytometry (AID 1871)
Condition label: bead-based flow cytometry, measured here: Ki for RGS7-Galphao
Threshold 4 µM. Ki below it: criterion met. Ki at it or above: criterion not met.

Here are 5 compounds together with their reported answers.
O=C(O[C@@H]1OC2COC(=O)c3cc(O)c(O)c(O)c3-c3c(cc(O)c(O)c3O)C(=O)O[C@@H]([C@H]1O)[C@@H]2O)c1cc(O)c(O)c(O)c1 = criterion met
C/C(=N/NC(=O)c1cc(O)c(O)c(O)c1)c1ccc([N+](=O)[O-])cc1 = criterion not met
Nc1c(C(=O)NCC2CCCO2)sc2nc3c(c(-c4ccco4)c12)CC/C3=C\c1ccco1 (centres undefined) = criterion met
O=C(Cc1csc(N2CCOCC2)n1)N/N=C/c1ccc(O)c(O)c1O = criterion not met
O=C(OCC1O[C@@H](OC(=O)c2cc(O)c(O)c(O)c2)[C@@H](OC(=O)c2cc(O)c(O)c(O)c2)[C@@H](OC(=O)c2cc(O)c(O)c(O)c2)[C@@H]1OC(=O)c1cc(O)c(O)c(O)c1)c1cc(O)c(O)c(O)c1 (some centres undefined) = criterion met

**Q:** State whether 4 µM exceeds Ki recorded for `O=C(COc1ccccc1C(=O)N/N=C\c1ccc(O)c(O)c1)N/N=C/c1ccc(O)c(O)c1` .
**A:** criterion met

**Q:** State whether 4 µM exceeds Ki recorded for `COCCCNC(=O)c1ccc2c3c(onc13)-c1ccccc1C2=O` .
**A:** criterion met

**Q:** State whether 4 µM exceeds Ki recorded for `CCN=c1scc(C)n1/N=C/c1ccc(O)c(O)c1O` .
**A:** criterion not met
